Cited source for all entries: paper PMC9026082

Listed next: entries and their corresponding EC50.
Test system: MCF7 (breast adenocarcinoma)
PROTOCOL_SUMMARY: SRB cytotoxicity assay, MCF7
Assay type: cell-based, human
CONDITION_PARAMETERS: Homo sapiens, MCF7, 72 h of treatment, cut-off 30 μM
Give the value, in units of µM, as a plain number.

CCN(CC)c1ccc2c(-c3ccccc3C(=O)N3CCN(C(=O)[C@]45CC[C@@H](C)[C@H](C)[C@H]4C4=CC[C@@H]6[C@@]7(C)C[C@@H](OC(C)=O)[C@H](OC(C)=O)[C@@](C)(COC(C)=O)[C@@H]7[C@H](O)C[C@@]6(C)[C@]4(C)CC5)CC3)c3ccc(=[N+](CC)CC)cc-3oc2c1 : 0.054

What value of EC50 has been recorded for this entry: CC(=O)OC[C@@]1(C)[C@@H]2CC[C@]3(C)[C@H](CC=C4[C@@H]5CC(C)(C)CC[C@]5(C(=O)NCc5ccccc5)CC[C@]43C)[C@@]2(C)CC[C@@H]1OC(C)=O 3.4

# EC50 lookup, item CC(=O)OC[C@@]1(C)[C@@H]2[C@H](O)C[C@]3(C)[C@H](CC=C4[C@@H]5[C@@H](C)[C@H](C)CC[C@]5(C(=O)NCc5ccccc5)CC[C@]43C)[C@@]2(C)C[C@@H](OC(C)=O)[C@@H]1OC(C)=O 2.7

// query EC50 value for entry CC(=O)OC[C@@]1(C)[C@@H]2[C@H](O)C[C@]3(C)[C@H](CC=C4[C@@H]5[C@@H](C)[C@H](C)CC[C@]5(C(=O)Nc5ccccc5)CC[C@]43C)[C@@]2(C)C[C@@H](OC(C)=O)[C@@H]1OC(C)=O 4.5
